Value source: patent US20100061982A1

Reported solubility values for the following compounds.
- Assay Info: Solubility pH 7.4
- Assay Conditions: pH 7.4, aqueous buffer
Unit µg/mL implied. Number only.

Data request: May I ask what solubility has been recorded for `COc1ccc2c(c1)c(/C=C1\Oc3cc(O)ccc3C1=O)cn2CCCN(C)C` ?
Data returned: 53

Data request: May I ask what solubility has been recorded for `COc1ccc2c(c1)c(/C=C1\Oc3cc(OC(C)=O)cc(OC(C)=O)c3C1=O)cn2CCCN(C)C` ?
Data returned: 49

Data request: May I ask what solubility has been recorded for `COc1ccc2c(c1)c(/C=C1\Oc3cc(OC(=O)N(C)C)cc(OC(=O)N(C)C)c3C1=O)cn2CCCN(C)C` ?
Data returned: 28

Let us examine a further case.
Data request: May I ask what solubility has been recorded for `COc1ccc2c(c1)c(/C=C1\Oc3cc(O)ccc3C1=O)c(C)n2CCN1CCN(C)CC1` ?
Data returned: 68

----------
- Assay Info: Buffer Stability (37° C.)
- Assay Conditions: SGF
Measurement Kind: Buffer Stability (37° C.) % Remaining (at 16-23 hours) SGF (%)
Unit % implied. Number only.

Data request: May I ask what Buffer Stability (37° C.) % Remaining (at 16-23 hours) SGF has been recorded for `COc1ccc2c(c1)c(/C=C1\Oc3cc(O)cc(O)c3C1=O)c(C)n2CCN1CCN(C)CC1` ?
Data returned: 99

Data request: May I ask what Buffer Stability (37° C.) % Remaining (at 16-23 hours) SGF has been recorded for COc1ccc2c(c1)c(/C=C1\Oc3cc(OC(=O)N(C)C)cc(OC(=O)N(C)C)c3C1=O)cn2CCCN(C)C [Example 8] ?
Data returned: 100

Data request: May I ask what Buffer Stability (37° C.) % Remaining (at 16-23 hours) SGF has been recorded for COc1ccc2c(c1)c(/C=C1\Oc3cc(OC(=O)C(C)(C)C)cc(OC(=O)C(C)(C)C)c3C1=O)cn2CCCN(C)C [Example 14] ?
Data returned: 94

Data request: May I ask what Buffer Stability (37° C.) % Remaining (at 16-23 hours) SGF has been recorded for COc1ccc2c(c1)c(/C=C1\Oc3cc(OC(=O)c4ccccc4)cc(OC(=O)c4ccccc4)c3C1=O)cn2CCCN(C)C [Example 24] ?
Data returned: 104

Data request: May I ask what Buffer Stability (37° C.) % Remaining (at 16-23 hours) SGF has been recorded for `COc1ccc2[nH]c(-c3ccccc3)c(C=C3Oc4cc(O)cc(O)c4C3=O)c2c1` ?
Data returned: 95

Data request: May I ask what Buffer Stability (37° C.) % Remaining (at 16-23 hours) SGF has been recorded for COc1ccc2c(c1)c(/C=C1\Oc3cc(OC(=O)c4ccccc4)cc(OC(=O)c4ccccc4)c3C1=O)c(C)n2CCN1CCN(C)CC1 [Example 16] ?
Data returned: 99

Data request: May I ask what Buffer Stability (37° C.) % Remaining (at 16-23 hours) SGF has been recorded for COc1ccc2[nH]c(-c3ccccc3)c(/C=C3\Oc4cc(OC(=O)N(C)C)ccc4C3=O)c2c1 [Example 18] ?
Data returned: 100

----------
Reported PAMPA Pe values for the following molecules.
- Assay Info: PAMPA permeability pH 7.4

Here is how some molecules turned out for PAMPA Pe.
Data request: May I ask what PAMPA Pe has been recorded for `COc1ccc2[nH]c(-c3ccccc3)c(/C=C3\Oc4cc(OC(=O)C(C)(C)C)cc(OC(=O)C(C)(C)C)c4C3=O)c2c1` ?
Data returned: 0 10e−6 cm/s

Data request: May I ask what PAMPA Pe has been recorded for `COc1ccc2[nH]c(-c3ccccc3)c(/C=C3\Oc4cc(OC(=O)OC(C)C)cc(OC(=O)OC(C)C)c4C3=O)c2c1` ?
Data returned: 0 10e−6 cm/s

Data request: May I ask what PAMPA Pe has been recorded for `Cn1cc(/C=C2\Oc3cc(O)cc(O)c3C2=O)c2c(-c3ccccc3)ccnc21` ?
Data returned: 0.09 10e−6 cm/s

Others:
Data request: May I ask what PAMPA Pe has been recorded for `COc1ccc2c(c1)c(/C=C1\Oc3cc(O)cc(O)c3C1=O)c(C)n2CCN1CCN(C)CC1` ?
Data returned: 0 10e−6 cm/s

----------
Reported Buffer Stability (37° C.) % Remaining (at 16-23 hours) pH 4.5 values for the following compounds.
- Assay Info: Buffer Stability (37° C.)
- Assay Conditions: pH 4.5
Returns: string containing the number followed by the unit.

Here is how some compounds turned out for Buffer Stability (37° C.) % Remaining (at 16-23 hours) pH 4.5.
Data request: May I ask what Buffer Stability (37° C.) % Remaining (at 16-23 hours) pH 4.5 has been recorded for COc1ccc2[nH]c(-c3ccccc3)c(/C=C3\Oc4cc(OC(=O)N(c5ccccc5)c5ccccc5)cc(OC(=O)N(c5ccccc5)c5ccccc5)c4C3=O)c2c1 [Example 11] ?
Data returned: 103%

Data request: May I ask what Buffer Stability (37° C.) % Remaining (at 16-23 hours) pH 4.5 has been recorded for COc1ccc2[nH]c(-c3ccccc3)c(/C=C3\Oc4cc(OC(=O)N(c5ccccc5)c5ccccc5)ccc4C3=O)c2c1 [Example 20] ?
Data returned: 100%

Data request: May I ask what Buffer Stability (37° C.) % Remaining (at 16-23 hours) pH 4.5 has been recorded for `COc1ccc2[nH]c(-c3ccccc3)c(/C=C3\Oc4cc(O)ccc4C3=O)c2c1` ?
Data returned: 98%

Data request: May I ask what Buffer Stability (37° C.) % Remaining (at 16-23 hours) pH 4.5 has been recorded for COc1ccc2[nH]c(-c3ccccc3)c(/C=C3\Oc4cc(OC(=O)OC(C)C)cc(OC(=O)OC(C)C)c4C3=O)c2c1 [Example 7] ?
Data returned: 91%

Data request: May I ask what Buffer Stability (37° C.) % Remaining (at 16-23 hours) pH 4.5 has been recorded for `COc1ccc2c(c1)c(/C=C1\Oc3cc(O)cc(O)c3C1=O)c(C)n2CCN1CCN(C)CC1` ?
Data returned: 78%

Others:
Data request: May I ask what Buffer Stability (37° C.) % Remaining (at 16-23 hours) pH 4.5 has been recorded for COc1ccc2c(c1)c(/C=C1\Oc3cc(OC(=O)c4ccccc4)cc(OC(=O)c4ccccc4)c3C1=O)cn2CCCN(C)C [Example 24] ?
Data returned: 71%

Data request: May I ask what Buffer Stability (37° C.) % Remaining (at 16-23 hours) pH 4.5 has been recorded for COc1ccc2c(c1)c(/C=C1\Oc3cc(OC(=O)OC(C)C)cc(OC(=O)OC(C)C)c3C1=O)cn2CCCN(C)C [Example 5] ?
Data returned: 82%

----------
Reported Buffer Stability (37° C.) % Remaining (at 16-23 hours) pH 1 values for the following compounds.
- Assay Info: Buffer Stability (37° C.)
- Assay Conditions: pH 1
Returns: string containing the number followed by the unit.

Here is how some compounds turned out for Buffer Stability (37° C.) % Remaining (at 16-23 hours) pH 1.
Data request: May I ask what Buffer Stability (37° C.) % Remaining (at 16-23 hours) pH 1 has been recorded for `COc1ccc2c(c1)c(/C=C1\Oc3cc(OC(=O)N(C)c4ccccc4)cc(OC(=O)N(C)c4ccccc4)c3C1=O)cn2CCCN(C)C` ?
Data returned: 100%

Data request: May I ask what Buffer Stability (37° C.) % Remaining (at 16-23 hours) pH 1 has been recorded for `CN(C)C(=O)Oc1cc(OC(=O)N(C)C)c2c(c1)O/C(=C\c1cn(C)c3cccc(-c4ccccc4)c13)C2=O` ?
Data returned: 100%

Data request: May I ask what Buffer Stability (37° C.) % Remaining (at 16-23 hours) pH 1 has been recorded for `COc1ccc2c(c1)c(/C=C1\Oc3cc(OC(=O)c4ccccc4)cc(OC(=O)c4ccccc4)c3C1=O)c(C)n2CCN1CCN(C)CC1` ?
Data returned: 96%

Data request: May I ask what Buffer Stability (37° C.) % Remaining (at 16-23 hours) pH 1 has been recorded for `COC(=O)Oc1cc(OC(=O)OC)c2c(c1)O/C(=C\c1c(-c3ccccc3)[nH]c3ccc(OC)cc13)C2=O` ?
Data returned: 80%

Data request: May I ask what Buffer Stability (37° C.) % Remaining (at 16-23 hours) pH 1 has been recorded for `COc1ccc2c(c1)c(/C=C1\Oc3cc(OC(=O)c4ccccc4)cc(OC(=O)c4ccccc4)c3C1=O)cn2CCCN(C)C` ?
Data returned: 86%

Others:
Data request: May I ask what Buffer Stability (37° C.) % Remaining (at 16-23 hours) pH 1 has been recorded for `CN(C)C(=O)Oc1cccc2c1C(=O)/C(=C/c1cn(C)c3nccc(N4CC5CCC(C4)O5)c13)O2` ?
Data returned: 102%

Data request: May I ask what Buffer Stability (37° C.) % Remaining (at 16-23 hours) pH 1 has been recorded for `COc1ccc2c(c1)c(/C=C1\Oc3cc(O)cc(O)c3C1=O)c(C)n2CCN1CCN(C)CC1` ?
Data returned: 99%

Data request: May I ask what Buffer Stability (37° C.) % Remaining (at 16-23 hours) pH 1 has been recorded for `COc1ccc2c(c1)c(/C=C1\Oc3cc(OC(=O)N(C(C)C)C(C)C)ccc3C1=O)c(C)n2CCN1CCN(C)CC1` ?
Data returned: 97%

Data request: May I ask what Buffer Stability (37° C.) % Remaining (at 16-23 hours) pH 1 has been recorded for `COc1ccc2[nH]c(-c3ccccc3)c(/C=C3\Oc4cc(OC(=O)c5ccccc5)ccc4C3=O)c2c1` ?
Data returned: 95%
